# Tested System: human recombinant IRAK4 protein (Homo sapiens (Human))
# Sequence (Q9NWZ3 whole entry): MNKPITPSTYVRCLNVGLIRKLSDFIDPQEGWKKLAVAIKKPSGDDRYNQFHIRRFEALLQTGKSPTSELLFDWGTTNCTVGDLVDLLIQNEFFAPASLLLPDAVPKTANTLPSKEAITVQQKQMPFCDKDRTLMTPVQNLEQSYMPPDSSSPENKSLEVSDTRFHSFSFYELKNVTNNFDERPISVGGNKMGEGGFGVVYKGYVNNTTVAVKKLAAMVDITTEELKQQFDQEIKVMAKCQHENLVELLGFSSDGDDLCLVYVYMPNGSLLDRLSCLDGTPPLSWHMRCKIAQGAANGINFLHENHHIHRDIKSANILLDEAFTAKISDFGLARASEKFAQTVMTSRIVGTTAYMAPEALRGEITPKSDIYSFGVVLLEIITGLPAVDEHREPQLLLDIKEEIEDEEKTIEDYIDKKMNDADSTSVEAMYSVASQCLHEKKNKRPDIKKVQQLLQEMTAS
# Method: IRAK4 enzyme assay (mass spectrometry readout)
# Applied Conditions: 3 mM ATP, 0.2 nM enzyme; geometric mean of at least n=2, * single experiment
Readout: IC50 (nM)

[[record]]
compound = "COc1cc2nn([C@H]3CCC[C@@H](O)[C@@H]3C)cc2cc1C(=O)Nc1cnc2cccnn12 (single isomer, unassigned) [Example 109]"
tested_system = "human recombinant IRAK4 protein (Homo sapiens (Human))"
result_number = 0.6

[[record]]
compound = "C[C@@]1(O)CCC[C@H](n2cc3cc(C(=O)Nc4cnn5cccnc45)c(OC4CC4)cc3n2)C1 (relative stereo) [Example 55]"
tested_system = "human recombinant IRAK4 protein (Homo sapiens (Human))"
result_number = 0.7

[[record]]
compound = "COc1cc2nn([C@H]3CCC[C@@H](O)[C@H]3C)cc2cc1C(=O)Nc1cnc2cccnn12 (single isomer, unassigned) [Example 105]"
tested_system = "human recombinant IRAK4 protein (Homo sapiens (Human))"
result_number = 6.5

[[record]]
compound = "COc1cc2nn([C@H]3CC[C@H](O)[C@@H](C)C3)cc2cc1C(=O)Nc1cnc2cccnn12 (single isomer, unassigned) [Example 81]"
tested_system = "human recombinant IRAK4 protein (Homo sapiens (Human))"
result_number = 5.1

[[record]]
compound = "COc1cc2nn([C@H]3CC[C@H](N(C)C(=O)N4CC[C@@H](O)C4)CC3)cc2cc1C(=O)Nc1cnc2cccnn12 [Example 117]"
tested_system = "human recombinant IRAK4 protein (Homo sapiens (Human))"
result_number = 0.3


(1) CC1(O)CC2(CCC(n3cc4cc(C(=O)Nc5cnn6cccnc56)c(OC5CC5)cc4n3)CC2)C1 (single isomer, unassigned) [Example 15]
(2) COc1cc2nn([C@H]3CCC(N(C)C(C)=O)C[C@@H]3C)cc2cc1C(=O)Nc1cnc2cccnn12 (single isomer, unassigned) [Example 34]
(3) O=C(Nc1cnn2cccnc12)c1cc2cn([C@@H]3CCC[C@H](O)C3)nc2cc1OC1CC1 [Example 17]
Query block: Order the 3 compounds from highest to lowest IC50. As an answer, provide the labels arranged in the order called for.
Result block: 2, 3, 1
(2: 2 nM, 3: 1 nM, 1: 0.5 nM)

====

# Tested on: IL-1β stimulated IL-8 release in hTHP1 cells
# Method: IL-1β-induced IL-8 release in human THP-1 monocyte cell line
# Format: cell-based
# Applied Conditions: Homo sapiens, THP-1, 18 h, THP-1 cells, IL-1β 1.8 ng/mL, geometric mean of at least n=2, * n = 1, read-out: hTHP1, IL1β stim, IL8 release red. IC50
pIC50: −log10 of the molar value.
Readout: pIC50

[[record]]
smiles_entry = "O=C(Nc1cnn2cccnc12)c1cc2cn([C@H]3CC[C@H](O)CC3)nc2cc1OC1CC1"
result_number = 7.46

[[record]]
smiles_entry = "COc1cc2nn([C@@H]3CC[C@@](C)(O)C[C@H]3C)cc2cc1C(=O)Nc1cnc2cccnn12"
result_number = 7.52

[[record]]
smiles_entry = "COc1cc2nn([C@H]3CC[C@]4(CC3)CC(=O)N(C)C4)cc2cc1C(=O)Nc1cnn2cccnc12"
result_number = 7.51

[[record]]
smiles_entry = "COc1cc2nn([C@@H]3CC[C@@H](O)C[C@H]3C)cc2cc1C(=O)Nc1cnc2cccnn12"
result_number = 7.51

